Recorded values, source the supplement of paper PMC10567573.

Provide the recorded protein stability index for the entries that follow.
B1: MMP1 (parent)
chain: MFFKDRFYMRTNPFYPEVELNFIS

variants of: B1; experiment: protein stability index of a GFP-peptide fusion (GPS, HEK-293T) (PSI 1-6); higher = more stable; details: c terminus: a fixed tail appended;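 note: lentivirally expressed fusions sorted by FACS into six bins by GFP to DsRed ratio, PSI derived from sequencing read proportions per bin multiplied by bin number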

Task: What value of measured protein stability index is listed for "S24A" ?
Result: 2.44

Task: What value of measured protein stability index is listed for "F22I" ?
Result: 3.29

Task: What value of measured protein stability index is listed for "P13D" ?
Result: 3.62

Task: What value of measured protein stability index is listed for "F22H" ?
Result: 2.16

Task: What value of measured protein stability index is listed for "N21F" ?
Result: 2.33

Task: What value of measured protein stability index is listed for "F14K" ?
Result: 3.31

Task: What value of measured protein stability index is listed for "E19V" ?
Result: 2.27

Task: What value of measured protein stability index is listed for "L20C" ?
Result: 3.04

Task: What value of measured protein stability index is listed for "V18I" ?
Result: 2.84

Task: What value of measured protein stability index is listed for "R6V" ?
Result: 3.16

Task: What value of measured protein stability index is listed for "K4P" ?
Result: 2.5

Task: What value of measured protein stability index is listed for "P13Y" ?
Result: 2.35

Task: What value of measured protein stability index is listed for "F2T" ?
Result: 2.29

Task: What value of measured protein stability index is listed for "K4W" ?
Result: 2.11
